Assay: Oral bioavailability (dose 20 mg/kg p.o.)
Assay type: ADME, organism-based
Details: rat, in vivo
Value type: bioavailability (%)

I: [O-][n+]1ccc(CC(c2ccc(C(O)(C(F)(F)F)C(F)(F)F)cc2)c2ccc(OC(F)F)c(OC(F)F)c2)cc1 (configuration not stated)
II: CC(C)(Nc1ccc(C(Cc2cc[n+]([O-])cc2)c2ccc(OC(F)F)c(OC(F)F)c2)cn1)c1ccccc1 (single isomer, unassigned; (-))
Task: Field: entry with larger bioavailability (options I / II ). Pick one; state its label.
Output: II
(II: 100%, I: 70%)

###

Biological target: UniProtKB P27815
Sequence (P27815 whole entry, looked up, stated change not applied, the tested form may be a part, canonical isoform): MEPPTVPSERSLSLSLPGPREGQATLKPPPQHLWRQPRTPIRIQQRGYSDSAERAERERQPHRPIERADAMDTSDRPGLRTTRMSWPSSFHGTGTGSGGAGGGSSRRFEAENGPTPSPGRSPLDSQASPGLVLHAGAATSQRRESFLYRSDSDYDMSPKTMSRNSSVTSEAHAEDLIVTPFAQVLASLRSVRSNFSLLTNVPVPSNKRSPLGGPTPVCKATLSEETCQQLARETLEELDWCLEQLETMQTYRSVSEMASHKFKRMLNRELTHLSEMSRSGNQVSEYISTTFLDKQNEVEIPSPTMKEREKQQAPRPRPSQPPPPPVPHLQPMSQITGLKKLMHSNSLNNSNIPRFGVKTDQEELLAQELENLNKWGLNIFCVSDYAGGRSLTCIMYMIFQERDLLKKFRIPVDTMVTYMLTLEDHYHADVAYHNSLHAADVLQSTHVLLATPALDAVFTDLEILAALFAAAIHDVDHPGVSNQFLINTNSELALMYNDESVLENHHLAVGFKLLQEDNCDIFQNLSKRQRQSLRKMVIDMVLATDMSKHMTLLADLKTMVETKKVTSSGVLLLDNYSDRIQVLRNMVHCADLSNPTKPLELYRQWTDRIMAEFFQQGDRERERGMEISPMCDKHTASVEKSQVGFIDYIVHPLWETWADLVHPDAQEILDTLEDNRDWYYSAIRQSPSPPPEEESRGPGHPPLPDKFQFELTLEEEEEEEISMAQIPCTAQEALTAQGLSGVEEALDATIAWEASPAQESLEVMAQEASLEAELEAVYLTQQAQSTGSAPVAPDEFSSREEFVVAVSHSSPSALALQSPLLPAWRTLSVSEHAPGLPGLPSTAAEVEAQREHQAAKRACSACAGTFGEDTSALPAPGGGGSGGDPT
Test: Inhibitory activity against human PDE4A expressed isoform using construct representing the common region of spliced variants as GST-fusion protein in Sf9 cells.
Value type: IC50 (nM)

Previously resolved entries follow.
{"Compound": "O=S(=O)(Nc1ccc(C(Cc2cc[n+]([O-])cc2)c2ccc(OC(F)F)c(OC(F)F)c2)cn1)c1ccccc1 (stereo not given)", "Assayed system": "UniProtKB P27815", "IC50 / nM": 16}
{"Compound": "O=C(Cc1ccccc1)Nc1ccc(C(Cc2cc[n+]([O-])cc2)c2ccc(OC(F)F)c(OC(F)F)c2)cn1 (stereo not given)", "Assayed system": "UniProtKB P27815", "IC50 / nM": 7.8}

A: CC(C)N(Cc1ccccc1)c1ccc(C(Cc2cc[n+]([O-])cc2)c2ccc(OC(F)F)c(OC(F)F)c2)cn1 (stereo not given)
B: [O-][n+]1ccc(CC(c2ccc(NCc3ccccc3)nc2)c2ccc(OC(F)F)c(OC(F)F)c2)cc1 (stereo not given)
C: CC(C)(Nc1ccc(C(Cc2cc[n+]([O-])cc2)c2ccc(OC(F)F)c(OC(F)F)c2)cn1)c1ccccc1 (single isomer, unassigned; (-))
Task: Order the entries by their reported IC50, beginning at the minimum. Reply format: the labels, ordered as requested.
Output: C, B, A

I: CC(C)Nc1ccc(C(Cc2cc[n+]([O-])cc2)c2ccc(OC(F)F)c(OC(F)F)c2)cn1 (stereo not given)
II: CCN(c1ccc(C(Cc2cc[n+]([O-])cc2)c2ccc(OC(F)F)c(OC(F)F)c2)cn1)[C@H](C)c1ccccc1 (stereo not given in full)
III: C[C@@H](Nc1ccc(C(Cc2cc[n+]([O-])cc2)c2ccc(OC(F)F)c(OC(F)F)c2)cn1)c1ccccc1 (stereo not given in full)
Task: Parameters: sort_field (IC50), sort_dir (desc). Reply format: the labels, ordered as requested.
Output: I, III, II
(I: 12 nM, III: 1.7 nM, II: 0.6 nM)
